# target: 5-hydroxytryptamine receptor 1D (Homo sapiens, UniProt P28221)
# Sequence (P28221 whole entry): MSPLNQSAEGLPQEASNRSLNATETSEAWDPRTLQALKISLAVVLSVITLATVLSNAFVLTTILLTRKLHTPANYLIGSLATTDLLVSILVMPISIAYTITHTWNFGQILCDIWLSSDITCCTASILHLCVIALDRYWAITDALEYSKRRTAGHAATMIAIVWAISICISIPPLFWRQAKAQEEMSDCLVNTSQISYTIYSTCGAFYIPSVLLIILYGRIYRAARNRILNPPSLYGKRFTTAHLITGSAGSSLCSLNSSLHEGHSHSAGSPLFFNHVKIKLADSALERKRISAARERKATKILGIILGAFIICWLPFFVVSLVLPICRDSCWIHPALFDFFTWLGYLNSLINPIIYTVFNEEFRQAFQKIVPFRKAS
# measurement-description: Displacement of [3H]5-HT binding from the cloned human 5-hydroxytryptamine 1D receptor stably expressed in CHO cells
# Type: cell-based
measured-parameter: pIC50
Answers are plain numbers, as −log10 of the molar value.

Study these solved cases before continuing.
C[C@@H](c1ccccc1)N(C)C[C@@H]1CCN(CCc2c[nH]c3ccc(Cn4cncn4)cc23)C1 = 9.15
CN(Cc1ccccc1)C[C@@H]1CCN(CCc2c[nH]c3ccc(C[C@H]4COC(=O)N4C)cc23)C1 = 8.77
OC[C@@H]1CCN(CCc2c[nH]c3ccc(-n4cnnc4)cc23)C1 = 7.59

Need pIC50 for each of these compounds.
1. c1ccc(COC[C@H]2CCCN2CCc2c[nH]c3ccc(-n4cnnc4)cc23)cc1
2. C[C@@H](NC[C@@H]1CCN(CCc2c[nH]c3ccc(-n4cnnc4)cc23)C1)c1ccccc1
3. CN(Cc1ccccc1)[C@@H]1CCN(CCc2c[nH]c3ccc(-n4cnnc4)cc23)C1
4. c1coc(CNC[C@@H]2CCN(CCc3c[nH]c4ccc(-n5cnnc5)cc34)C2)c1

[7.02, 9.14, 7.43, 8.82]

Return reported pIC50 values for all items listed beneath this line.
1. c1ccc(CCNC[C@@H]2CCN(CCc3c[nH]c4ccc(-n5cnnc5)cc34)C2)cc1
2. CN(Cc1ccccc1)C[C@@H]1CCN(CCc2c[nH]c3ccc(Cn4cncn4)cc23)C1

[8.59, 8.11]

Values from ChEMBL document CHEMBL1132587
